# SYSTEM: VIP receptor on human cells (human)
# ASSAY_DETAILS: competition with 125I-VIP on COLO320 cells
No end group written: not given here.
REPORTED_METRIC: IC50 (nM)

P = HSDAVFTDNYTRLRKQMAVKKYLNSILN-NH2 [Vasoactive intestinal peptide (VIP)]
Q = AGCHSDAVFTDNYTRLRKQMAVKKYLNSILN-NH2 (also: non-radioactive ReO complexed to the chelating moiety) [ReO-complexed P915]
R = HSDAVFTDNYTRLRKQMAVKKYLNSILNGGC-NH2 (also: non-radioactive ReO complexed to the chelating moiety) [ReO-complexed P916]
Sort the binders on IC50; start with the lowest figure. Your answer should be the labels, listed in the requested order. P, R, Q
(P: 1.5 nM, R: 4 nM, Q: 6.7 nM)
